Tested on: L1210 leukemia ip in BDF1 mice, survival T/C
ASSAY NOTES: NCI In Vivo Anticancer Drug Screen. Data for tumor model L1210 Leukemia (intraperitoneal) in B6D2F1 (BDF1) mice
CONDITION CONTEXT: endpoint: mean survival time; dose: 25.0 mg/kg/injection; schedule: Q01DX009 (ip); vehicle: saline; higher = longer survival
Toxic doses and inconclusive results are not listed.
For each record, write down the corresponding T/C.

Give T/C for each of the items listed below.
1. CCN(CC)CCOC(=O)N(c1ccccc1)c1ccccc1
2. Nc1ccc2ncccc2c1
3. Cc1noc(N)c1[N+](=O)[O-]
4. O=C1NC2(CCCCC2)C(=O)N1CCN(CCCl)CCCl
5. CCN(CC)CC(=O)NCC(C)(CCN1CCCCC1)c1cccc2ccccc12 (stereo not drawn)

## Output
104 % of control
97 % of control
109 % of control
106 % of control
91 % of control

Give T/C for each of the items listed below.
1. CCN(CC)CCCOC(=O)C(c1ccccc1)C1CCCCC1 (stereo not drawn)
2. O=C1OC(C(O)CO)C(O)=C1O (stereo not drawn)
3. COC1OC(CN(CCO)CCO)C2OC(C)(C)OC12 (stereo not drawn)
4. O=N[O-].[Co].[N-]=C=S.[NH2-].[NH2-].[NH2-].[NH2-]
5. O=CN(O)CC(=O)O.[Zn]

## Output
1. 94 % of control
2. 95 % of control
3. 98 % of control
4. 104 % of control
5. 120 % of control

Give T/C for each of the items listed below.
1. CC(N)Cc1ccc(O)cc1 (stereo not drawn)
2. O=C1C[N+]2(CCCCC2)c2ccc(Cl)cc2N1
3. N#CC1C2CCC(C2)C1CCCN (stereo not drawn)

## Output
108 % of control
95 % of control
108 % of control

* * *

For each record, write down the corresponding T/C.
Test system: L1210 leukemia ip in BDF1 mice, survival T/C
ASSAY NOTES: NCI In Vivo Anticancer Drug Screen. Data for tumor model L1210 Leukemia (intraperitoneal) in B6D2F1 (BDF1) mice
CONDITION CONTEXT: endpoint: mean survival time; dose: 400.0 mg/kg/injection; schedule: Q01DX001 (ip); vehicle: saline with Tween-80; higher = longer survival
Toxic doses and inconclusive results are not listed.

Recorded T/C, per entry:
CCCCCSc1cccc(N)c1    97 % of control
COc1ccc(Cl)cc1NC(=O)Oc1c(C)cccc1C    96 % of control
ClC1=NC(c2ccccc2)N2C(Cl)C12 (stereo not given)    95 % of control
O=C(O)c1ccsc1C(=O)c1ccccc1    97 % of control

Now take the following compound into account.
## Input Tell me the measured T/C of CCCCC/C=C(\CCCCCC)c1ccccc1 , please.
## Output 90 % of control

* * *

Tested on: L1210 leukemia ip in BDF1 mice, survival T/C
ASSAY NOTES: NCI In Vivo Anticancer Drug Screen. Data for tumor model L1210 Leukemia (intraperitoneal) in B6D2F1 (BDF1) mice
CONDITION CONTEXT: endpoint: mean survival time; dose: 100.0 mg/kg/injection; schedule: Q04DX003 (ip); vehicle: saline with Tween-80; higher = longer survival
Inconclusive results and toxic doses are left out.
For each record, write down the corresponding T/C.

COc1ccc(Cl)cc1NC(=O)c1ccc(Cl)cc1Cl    98 % of control

Give T/C for each of the items listed below.
1. CC(C)Cc1ccc(N=Nc2ccccc2)cc1
2. Fc1ccc(N=C2c3ccccc3-c3ccccc32)cc1

## Output
1. 93 % of control
2. 93 % of control

Give T/C for each of the items listed below.
1. CCN(C(=O)CC(C)=O)c1ccccc1
2. O=C(N/N=C/c1ccc(-c2ccccc2)cc1)Nc1ccccc1
3. COc1ccc(OC)c(CCC(O)CCc2cc(OC)ccc2OC)c1
4. CCOC(=O)C1=C(C)NC(C)=C(C(=O)OCC)C1c1ccccc1[N+](=O)[O-]
5. CC(=O)NCc1cc2c3c(c1)CCCN3CCC2

## Output
["98 % of control", "92 % of control", "96 % of control", "90 % of control", "90 % of control"]

Give T/C for each of the items listed below.
1. C=CCNC(=O)C1C2C=CC(C2)C1C(=O)NCC=C (configuration not stated)
2. CC(=O)Nc1ccc(S(=O)(=O)OCCC#N)cc1
3. CCCCNC(=O)C(C)S(=O)(=O)c1ccc(C)cc1 (configuration not stated)
4. CC(=O)NNc1nc(C)cs1

## Output
103 % of control
99 % of control
100 % of control
97 % of control
